- system-under-test: UniProt:P33535
- Sequence (P33535 whole entry): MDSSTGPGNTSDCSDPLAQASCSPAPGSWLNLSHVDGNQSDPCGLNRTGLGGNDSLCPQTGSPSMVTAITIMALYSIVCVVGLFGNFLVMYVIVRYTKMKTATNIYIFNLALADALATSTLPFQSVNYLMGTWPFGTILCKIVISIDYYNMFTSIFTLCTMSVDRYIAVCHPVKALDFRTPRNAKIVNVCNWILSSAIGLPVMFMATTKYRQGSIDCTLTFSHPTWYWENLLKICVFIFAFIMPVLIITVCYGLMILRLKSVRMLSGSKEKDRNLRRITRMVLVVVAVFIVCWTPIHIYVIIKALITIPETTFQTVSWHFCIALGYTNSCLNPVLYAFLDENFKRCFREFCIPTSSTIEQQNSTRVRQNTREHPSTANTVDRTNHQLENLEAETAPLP
- procedure-details: Binding affinity for mu opioid receptors by displacement of [3H]-DAMGO from rat brain membrane binding site
measurement-name: pKi
One number for each entry, as −log10 of the molar value.

// input: 7 compounds below; output: pKi for each
1. N[C@@H](Cc1ccc(O)cc1)C(=O)N[C@@H]1CCCNC(=O)CNC(=O)[C@H]2CCCN2C(=O)[C@H](Cc2c[nH]c3ccccc23)NC1=O
2. N[C@@H](Cc1ccc(O)cc1)C(=O)NC1CCCNC(=O)CNC(=O)[C@@H]2CCCN2C(=O)[C@H](Cc2ccc3ccccc3c2)NC1=O (single isomer, unassigned)
3. N[C@@H](Cc1ccc(O)cc1)C(=O)N[C@@H]1CCCNC(=O)[C@H]2CCCN2C(=O)[C@H](Cc2ccc3ccccc3c2)NC1=O
4. N[C@@H](Cc1ccc(O)cc1)C(=O)N[C@@H]1CCCNC(=O)CNC(=O)[C@H]2CCCN2C(=O)[C@H](Cc2ccccc2)NC1=O
5. N[C@@H](Cc1ccc(O)cc1)C(=O)N[C@@H]1CCCNC(=O)CNC(=O)[C@H]2CCCN2C(=O)[C@H](Cc2cccc3ccccc23)NC1=O
6. N[C@@H](Cc1ccc(O)cc1)C(=O)N[C@@H]1CCNC(=O)CNC(=O)[C@H]2CCCN2C(=O)[C@H](Cc2ccc3ccccc3c2)NC1=O
7. N[C@@H](Cc1ccc(O)cc1)C(=O)NC1CCCNC(=O)CNC(=O)[C@@H]2CCCN2C(=O)[C@H](Cc2ccccc2)NC1=O (single isomer, unassigned)

Result ::
8.68
7.09
8.56
9.06
8.47
8.19
8.40

====

I'd appreciate it if you could supply IC50 values for the items below.
- Organism: Mus musculus
- procedure-details: In vitro inhibition of electrically evoked contractions of the mouse vas deferens (MVD)
- Format: functional
Answers are plain numbers, in µM.

Known results for compounds:
INSERT INTO assay_data (compound, quantitative_result) VALUES
  ('N[C@@H](Cc1ccc(O)cc1)C(=O)NC1CCCNC(=O)CNC(=O)[C@@H]2CCCN2C(=O)[C@H](Cc2ccc3ccccc3c2)NC1=O (single isomer, unassigned)', 10),
  ('N[C@@H](Cc1ccc(O)cc1)C(=O)N[C@@H]1CCCNC(=O)CNC(=O)[C@H]2CCCN2C(=O)[C@H](Cc2c[nH]c3ccccc23)NC1=O', 0.0161),
  ('N[C@@H](Cc1ccc(O)cc1)C(=O)NC1CCCNC(=O)CNC(=O)[C@@H]2CCCN2C(=O)[C@H](Cc2ccccc2)NC1=O (single isomer, unassigned)', 0.0699),
  ('N[C@@H](Cc1ccc(O)cc1)C(=O)N[C@@H]1CCCNC(=O)CNC(=O)[C@H]2CCCN2C(=O)[C@H](Cc2cccc3ccccc23)NC1=O', 0.0299),
  ('N[C@@H](Cc1ccc(O)cc1)C(=O)N[C@@H]1CCCNC(=O)CNC(=O)[C@H]2CCCN2C(=O)[C@H](Cc2ccccc2)NC1=O', 0.00498),
  ('N[C@@H](Cc1ccc(O)cc1)C(=O)N[C@@H]1CCNC(=O)CNC(=O)[C@H]2CCCN2C(=O)[C@H](Cc2ccc3ccccc3c2)NC1=O', 1);

Query :: Entry N[C@@H](Cc1ccc(O)cc1)C(=O)N[C@@H]1CCCNC(=O)[C@H]2CCCN2C(=O)[C@H](Cc2ccc3ccccc3c2)NC1=O has what IC50?
Result :: 0.0322
